These entries and their values trace back to ChEMBL document CHEMBL4270599.

The following molecules are shown together with reported growth at 10 µM values.
- System: SR
- PROCEDURE_TEXT: Growth inhibition of human SR cells assessed as cell growth at 10^-5 M incubated for 48 hrs by sulforhodamine B assay relative to control
- Assay type: functional
- CONDITION_INFO: read-out: Activity
Kindly answer with a numeric value in %, unit omitted.

>>> endpoint_result("C#C[C@@]1(O)[C@@H](CO)O[C@@H](n2ccc3c(N)ncnc32)[C@@H]1O")
15

# ---- query molecule ----
Endpoint output: growth at 10 µM of C#C[C@@]1(O)[C@@H](CO)O[C@@H](n2cc(F)c3c(N)ncnc32)[C@@H]1O . Value?
4

* * *

- Test system: ACHN
- PROCEDURE_TEXT: Cytotoxicity against human ACHN cells after 48 hrs by SRB assay
- Format: functional
Parameter GI50: see the listing below.
Expressed in nM, but write only the number.

>>> endpoint_result("C#C[C@@]1(O)[C@@H](CO)O[C@@H](n2cc(Cl)c3c(N)ncnc32)[C@@H]1O")
219
>>> endpoint_result("C#C[C@@]1(O)[C@@H](CO)O[C@@H](n2ccc3c(N)ncnc32)[C@@H]1O")
562
>>> endpoint_result("C#C[C@@]1(O)[C@@H](CO)O[C@@H](n2cc(Br)c3c(N)ncnc32)[C@@H]1O")
234
>>> endpoint_result("C#C[C@@]1(O)[C@@H](CO)O[C@@H](n2cc(F)c3c(N)ncnc32)[C@@H]1O")
240

Now let's try a different one.
Need GI50, item C#C[C@@]1(O)[C@@H](CO)O[C@@H](n2cc(I)c3c(N)ncnc32)[C@@H]1O
316

* * *

Below: a set of entries, each annotated with reported growth at 0.01 µM.
- Tested on: SF-295
- PROCEDURE_TEXT: Growth inhibition of human SF295 cells assessed as cell growth at 10^-8 M incubated for 48 hrs by sulforhodamine B assay relative to control
- Format: functional
- CONDITION_INFO: SF-295, 48 h, read-out: Activity

Solved entries (count: 2):
>>> endpoint_result("C#C[C@@]1(O)[C@@H](CO)O[C@@H](n2ccc3c(N)ncnc32)[C@@H]1O")
"89%"
>>> endpoint_result("C#C[C@@]1(O)[C@@H](CO)O[C@@H](n2cc(I)c3c(N)ncnc32)[C@@H]1O")
"90%"

# get_value(readout='growth at 0.01 µM', item= C#C[C@@]1(O)[C@@H](CO)O[C@@H](n2cc(Br)c3c(N)ncnc32)[C@@H]1O )
90 to 96%

Reported growth at 0.01 µM, molecule C#C[C@@]1(O)[C@@H](CO)O[C@@H](n2cc(F)c3c(N)ncnc32)[C@@H]1O : ____
98%

Consider the molecule C#C[C@@]1(O)[C@@H](CO)O[C@@H](n2cc(Cl)c3c(N)ncnc32)[C@@H]1O and give its measured growth at 0.01 µM.
82 to 92%

* * *

Property: growth at 0.01 µM; scope: individual compounds
- System: SK-OV-3
- PROCEDURE_TEXT: Growth inhibition of human SKOV3 cells assessed as cell growth at 10^-8 M incubated for 48 hrs by sulforhodamine B assay relative to control
- Assay type: functional
- CONDITION_INFO: SK-OV-3, 48 h, read-out: Activity
Enter your answer as a number in %; do not include the unit.

>>> endpoint_result("C#C[C@@]1(O)[C@@H](CO)O[C@@H](n2cc(F)c3c(N)ncnc32)[C@@H]1O")
96

As a next step, examine the compound that follows.
For the compound C#C[C@@]1(O)[C@@H](CO)O[C@@H](n2ccc3c(N)ncnc32)[C@@H]1O , what growth at 0.01 µM is on record?
94
